Where do these numbers come from? They come from paper PMC5540273.

For each record, write down the corresponding %Inh.
system: GCN2(Kin.Dom.2,S808G); construct: gene EIF2AK4; conditions: concentration: 1 μM, replicates: in singlicate; n = 1;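 further: KINOMEscan kinase panel screen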
Give your result in % as a bare value.

// recorded %Inh for COc1ccc(Nc2nccc(N3CCC(NC(=O)Nc4cc(C)ccc4C)C3)n2)cc1 (stereo not drawn) : 0

// recorded %Inh for N#Cc1ccc(-c2cc(-c3c[nH]nc3-c3ccccn3)ccn2)cc1 : 0

// recorded %Inh for Fc1ccc(-c2ncn(CCCN3CCOCC3)c2-c2cccnc2)cc1 : 8

// recorded %Inh for CCc1nc(-c2cccc(C)c2)c(-c2ccnc(NCc3ccccc3)c2)s1 : 11

// recorded %Inh for CC(=O)Nc1ccc(COc2ccc(Nc3ccnc4cc(-c5ccccn5)ccc34)cc2)cc1.Cl : 0

// recorded %Inh for O=C(NCCNc1ccnc(Nc2ccc(F)cc2)n1)Nc1ccccc1F : 3

// recorded %Inh for Cc1ccc(C(=O)NCC(N)=O)cc1-n1c(C)cc(OCc2ccc(F)cc2F)c(Br)c1=O : 0

// recorded %Inh for CN(C(=O)c1ccc(-c2cc(-c3c[nH]nc3-c3ccccn3)ccn2)cc1)C1CCOCC1 : 2

// recorded %Inh for Fc1ccc(-c2ncn(CCCN3CCOCC3)c2-c2ccccn2)cc1 : 0

// recorded %Inh for COc1cc(Nc2nccc(N3CCC(NC(=O)c4cccc(NC(C)=O)c4)C3)n2)cc(OC)c1OC (stereo not drawn) : 17

// recorded %Inh for Cl.Nc1ncnc2occ(-c3ccc(NC(=O)Nc4cc(C(F)(F)F)ccc4F)cc3)c12 : 8

// recorded %Inh for Cc1cccc(-c2nc(-c3ccc(S(C)(=O)=O)cc3)sc2-c2ccncc2)c1 : 0
